Molecular target: MBP-DDX3X full-length (UniProt O00571 1-662)
Sequence (O00571 whole entry): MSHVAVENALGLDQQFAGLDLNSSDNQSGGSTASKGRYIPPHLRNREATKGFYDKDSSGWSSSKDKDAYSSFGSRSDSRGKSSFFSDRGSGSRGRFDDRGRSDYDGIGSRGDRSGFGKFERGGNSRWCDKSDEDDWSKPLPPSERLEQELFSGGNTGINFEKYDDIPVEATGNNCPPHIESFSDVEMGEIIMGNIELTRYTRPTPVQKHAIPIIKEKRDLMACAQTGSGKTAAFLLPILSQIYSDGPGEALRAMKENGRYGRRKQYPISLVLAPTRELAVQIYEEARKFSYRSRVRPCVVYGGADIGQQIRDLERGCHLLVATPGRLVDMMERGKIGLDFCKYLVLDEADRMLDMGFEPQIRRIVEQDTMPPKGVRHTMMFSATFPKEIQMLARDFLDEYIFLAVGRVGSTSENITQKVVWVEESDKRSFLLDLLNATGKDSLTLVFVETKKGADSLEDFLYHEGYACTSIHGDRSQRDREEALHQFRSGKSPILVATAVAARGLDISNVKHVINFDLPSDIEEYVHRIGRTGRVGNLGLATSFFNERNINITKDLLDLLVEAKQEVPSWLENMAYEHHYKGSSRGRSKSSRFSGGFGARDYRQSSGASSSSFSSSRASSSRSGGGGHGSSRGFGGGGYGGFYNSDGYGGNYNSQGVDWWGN
Test: EMSA
Value kind: pKd
On this scale, pKd is minus log10 of a concentration expressed in M (mol/L).

Given dsRNA I (18-mer/42-mer) (dsRNA) RNA 1: ACCGCUGCCGUCGCUCCG RNA 2: UUUUUUUUUUUUUUUUUUUUUUUUCGGAGCGACGGCAGCGGU , state its recorded pKd.
6.28

Value source: paper doi:10.1101/2023.11.29.569239
